Listed compounds paired with reported pIC50
# MEASUREMENT_TARGET: Transient receptor potential cation channel subfamily V member 2 (Rattus norvegicus)
# Sequence (Q9WUD2 whole entry): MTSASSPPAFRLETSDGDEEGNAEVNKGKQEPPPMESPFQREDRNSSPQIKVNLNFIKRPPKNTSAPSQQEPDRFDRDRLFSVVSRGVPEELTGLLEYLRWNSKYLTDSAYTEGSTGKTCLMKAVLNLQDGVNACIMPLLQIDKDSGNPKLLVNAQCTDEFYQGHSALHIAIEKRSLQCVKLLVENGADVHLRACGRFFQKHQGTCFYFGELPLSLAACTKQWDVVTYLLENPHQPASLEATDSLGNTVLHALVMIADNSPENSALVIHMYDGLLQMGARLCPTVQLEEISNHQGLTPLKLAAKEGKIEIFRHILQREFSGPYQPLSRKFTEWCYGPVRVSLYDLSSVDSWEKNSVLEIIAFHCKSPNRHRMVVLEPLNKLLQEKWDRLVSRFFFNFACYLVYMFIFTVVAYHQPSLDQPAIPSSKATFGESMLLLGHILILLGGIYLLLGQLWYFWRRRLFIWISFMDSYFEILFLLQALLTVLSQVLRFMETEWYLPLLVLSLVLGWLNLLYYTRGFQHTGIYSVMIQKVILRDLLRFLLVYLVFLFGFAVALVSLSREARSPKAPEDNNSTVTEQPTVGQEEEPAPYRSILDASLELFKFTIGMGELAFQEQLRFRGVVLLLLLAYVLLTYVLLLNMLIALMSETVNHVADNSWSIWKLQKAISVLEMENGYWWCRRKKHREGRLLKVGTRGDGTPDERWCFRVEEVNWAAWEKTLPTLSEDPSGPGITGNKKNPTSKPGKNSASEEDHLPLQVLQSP
# EXPERIMENT_NOTES: Antagonist activity at recombinant rat TRPV2 expressed in HEK293 cells assessed as inhibition of CBD-induced Ca2+ levels preincubated for 5 mins followed by agonist addition by Fuo-4-AM based spectrofluorimetry
# Type: cell-based
# pIC50 is unitless: minus log10 of the molar concentration; print number only

{"SMILES_CODE": "CC/C=C\\C/C=C\\C/C=C\\C/C=C\\C/C=C\\C/C=C\\CCC(=O)NCCO", "ENDPOINT_RESULT": 5.79}
{"SMILES_CODE": "CCCCC/C=C\\C/C=C\\CCCCCCCCSCCC(=O)NCc1ccc(O)c(OC)c1", "ENDPOINT_RESULT": 5.55}
{"SMILES_CODE": "CCCCCCCC/C=C\\CCCCCCCCCCCC(=O)NCc1ccc(O)c(OC)c1", "ENDPOINT_RESULT": 5.82}

Field: next compound
Request: Report pIC50 under test system Transient receptor potential cation channel subfamily V member 2 (Rattus norvegicus) for "CCCCCC[C@@H](O)C/C=C\CCCCCCCC[Se]CCC(=O)NCc1ccc(O)c(OC)c1" .
Result: 5.85
